- method.notes: Pharmacokinetic study of 14 compounds in rat plasma after oral administration of XYP (UPLC-MS/MS)
- Format: in vivo, Sprague–Dawley rats
- settings: female, Sprague-Dawley, oral XYP 4 g/kg, mean ± SD, n = 6, read-out: MRT0–t
MRT last for assorted molecules
Your answer should be a plain number; it is taken to be in h.

These solved cases illustrate the format of a correct answer.
- molecule: "O=c1c(O)c(-c2ccc(O)c(O)c2)oc2cc(O)cc(O)c12"
  MRT last / h: 6.4
- molecule: "O=C(/C=C/c1ccc(O)cc1)c1ccc(O)cc1O"
  MRT last / h: 5.98
- molecule: "C[C@H]1O[C@@H](O[C@H]2CC[C@@]3(C)[C@@H](CC[C@]4(C)[C@@H]3C=C[C@]35OC[C@@]6(CCC(C)(C)C[C@H]63)[C@@H](O)C[C@]54C)[C@]2(C)CO)[C@H](O)[C@@H](O[C@@H]2O[C@H](CO)[C@@H](O)[C@H](O)[C@H]2O)[C@H]1O"
  MRT last / h: 6.61
- molecule: "CC12CC(O)C3CC1(OC1OC(CO)C(O)C(O)C1O)C3(COC(=O)c1ccccc1)C(=O)O2 (centres unmarked)"
  MRT last / h: 4.18
- molecule: "C[C@@H]1O[C@@H](O[C@H]2[C@H](O)[C@@H](O)[C@H](O[C@H]3CC[C@]4(C)[C@H]5C=C[C@]67OC[C@@]8(CCC(C)(C)C[C@H]86)[C@@H](O)C[C@@]7(C)[C@]5(C)CC[C@H]4C3(C)C)O[C@@H]2CO[C@@H]2O[C@H](CO)[C@@H](O)[C@H](O)[C@H]2O)[C@H](O)[C@H](O)[C@H]1O"
  MRT last / h: 6.49

State the recorded MRT last for this entry: CC1(C)[C@@H](O[C@H]2O[C@H](C(=O)O)[C@@H](O)[C@H](O)[C@H]2O[C@@H]2O[C@H](C(=O)O)[C@@H](O)[C@H](O)[C@H]2O)CC[C@]2(C)[C@H]3C(=O)C=C4[C@@H]5C[C@@](C)(C(=O)O)CC[C@]5(C)CC[C@@]4(C)[C@]3(C)CC[C@@H]12
10.1

I'd like to know its MRT last. The molecule in question is C=C1CCC[C@]2(C)C[C@]3(O)OC(=O)C(C)=C3C[C@@H]12 [Atractylenolide III, atractylenolide III]
6.23

Could you tell me which MRT last is on file for O=C1C[C@@H](c2ccc(O)cc2)Oc2cc(O)ccc21 ?
8.85

Find the recorded MRT last belonging to CCC/C=C1\OC(=O)C2=C1CCC=C2 [Ligustilide, ligustilide] and report it.
5.63

Tell me the measured MRT last of CCC/C=C1\OC(=O)C2=C1CC[C@H](O)[C@H]2O [Senkyunolide I, senkyunolide I] , please.
5.31

Recorded MRT last of COc1cc(/C=C/C(=O)O)ccc1O , please.
3.97

====

- method.notes: Pharmacokinetic study of 14 compounds in rat plasma after oral administration of XYP (UPLC-MS/MS)
- Assay type: in vivo, Sprague–Dawley rats
- settings: female, Sprague-Dawley, oral XYP 4 g/kg, mean ± SD, n = 6
- Procedure: The validated UPLC-MS/MS method was successfully applied to the pharmacokinetic study of 14 compounds in rat plasma after the oral administration of XYP at a dose of 4 g/kg (8-fold the clinical dosage). Quantitative analysis was conducted on a Waters® Micromass® Quattro Premier™ XE triple-quadrupole tandem mass spectrometer (Waters Corp., Milford, MA, USA). […]
Collected log10 of Cmax values appear next to each entry.
The base-10 logarithm of Cmax, taken with Cmax in ng/mL, is what appears here.

Worked set:
- molecule: "C[C@@H]1O[C@@H](O[C@H]2[C@H](O)[C@@H](O)[C@H](O[C@H]3CC[C@]4(C)[C@H]5C=C[C@]67OC[C@@]8(CCC(C)(C)C[C@H]86)[C@@H](O)C[C@@]7(C)[C@]5(C)CC[C@H]4C3(C)C)O[C@@H]2CO[C@@H]2O[C@H](CO)[C@@H](O)[C@H](O)[C@H]2O)[C@H](O)[C@H](O)[C@H]1O [Saikosaponin c, saikosaponin c]"
  log10 of Cmax: -0.02
- molecule: "COc1cc(/C=C/C(=O)O)ccc1O [Ferulic acid, ferulic acid]"
  log10 of Cmax: 2.80

Please give the measured log10 of Cmax for this molecule: O=C1C[C@@H](c2ccc(O[C@@H]3O[C@H](CO)[C@@H](O)[C@H](O)[C@H]3O)cc2)Oc2cc(O)ccc21 [Liquiritin, liquiritin]
1.76

====

- method.notes: Pharmacokinetic study of 14 compounds in rat plasma after oral administration of XYP (UPLC-MS/MS)
- Type: in vivo, Sprague–Dawley rats
- Parameters: unit not given here
- settings: oral XYP 4 g/kg, mean ± SD, n = 6
test.readout: Kel (elimination rate constant)
Reply: number alone, nothing else.

- compound: "CC1(C)[C@@H](O[C@H]2O[C@H](C(=O)O)[C@@H](O)[C@H](O)[C@H]2O[C@@H]2O[C@H](C(=O)O)[C@@H](O)[C@H](O)[C@H]2O)CC[C@]2(C)[C@H]3C(=O)C=C4[C@@H]5C[C@@](C)(C(=O)O)CC[C@]5(C)CC[C@@]4(C)[C@]3(C)CC[C@@H]12"
  Kel (elimination rate constant): 0.12
- compound: "CCC/C=C1\\OC(=O)C2=C1CCC=C2 [Ligustilide, ligustilide]"
  Kel (elimination rate constant): 0.17
- compound: "O=C1C[C@@H](c2ccc(O[C@@H]3O[C@H](CO)[C@@H](O)[C@H](O)[C@H]3O)cc2)Oc2cc(O)ccc21"
  Kel (elimination rate constant): 0.09
- compound: "C[C@@H]1O[C@@H](O[C@H]2[C@H](O)[C@@H](O)[C@H](O[C@H]3CC[C@]4(C)[C@H]5C=C[C@]67OC[C@@]8(CCC(C)(C)C[C@H]86)[C@@H](O)C[C@@]7(C)[C@]5(C)CC[C@H]4C3(C)C)O[C@@H]2CO[C@@H]2O[C@H](CO)[C@@H](O)[C@H](O)[C@H]2O)[C@H](O)[C@H](O)[C@H]1O"
  Kel (elimination rate constant): 0.22
- compound: "CCC/C=C1\\OC(=O)C2=C1CC[C@H](O)[C@H]2O [Senkyunolide I, senkyunolide I]"
  Kel (elimination rate constant): 0.18
- compound: "C=C1CCC[C@]2(C)C[C@@H]3OC(=O)C(C)=C3C[C@@H]12 [Atractylenolide II, atractylenolide II]"
  Kel (elimination rate constant): 0.21
- compound: "O=C(/C=C/c1ccc(O)cc1)c1ccc(O)cc1O"
  Kel (elimination rate constant): 0.17
- compound: "O=c1c(O)c(-c2ccc(O)c(O)c2)oc2cc(O)cc(O)c12"
  Kel (elimination rate constant): 0.19
- compound: "O=C1C[C@@H](c2ccc(O)cc2)Oc2cc(O)ccc21"
  Kel (elimination rate constant): 0.12
- compound: "C=C1CCC[C@]2(C)C[C@]3(O)OC(=O)C(C)=C3C[C@@H]12 [Atractylenolide III, atractylenolide III]"
  Kel (elimination rate constant): 0.11

# next compound below
Given C[C@H]1O[C@@H](O[C@H]2CC[C@@]3(C)[C@@H](CC[C@]4(C)[C@@H]3C=C[C@]35OC[C@@]6(CCC(C)(C)C[C@H]63)[C@@H](O)C[C@]54C)[C@]2(C)CO)[C@H](O)[C@@H](O[C@@H]2O[C@H](CO)[C@@H](O)[C@H](O)[C@H]2O)[C@H]1O , state its recorded Kel (elimination rate constant).
0.12

====

- method.notes: Pharmacokinetic study of 14 compounds in rat plasma after oral administration of XYP (UPLC-MS/MS)
- Format: in vivo, Sprague–Dawley rats
- settings: female, Sprague-Dawley, oral XYP 4 g/kg, mean ± SD, n = 6
Let's look at some compounds and their measured AUC(0-inf).
Reply with just the number (in ng·h/mL).

- compound: "CCC/C=C1\\OC(=O)C2=C1CC[C@H](O)[C@H]2O [Senkyunolide I, senkyunolide I]"
  endpoint.result: 1620
- compound: "O=C1C[C@@H](c2ccc(O)cc2)Oc2cc(O)ccc21"
  endpoint.result: 328
- compound: "C=C1CCC[C@]2(C)C[C@@H]3OC(=O)C(C)=C3C[C@@H]12 [Atractylenolide II, atractylenolide II]"
  endpoint.result: 70.2
- compound: "C[C@@H]1O[C@@H](O[C@H]2[C@H](O)[C@@H](O)[C@H](O[C@H]3CC[C@]4(C)[C@H]5C=C[C@]67OC[C@@]8(CCC(C)(C)C[C@H]86)[C@@H](O)C[C@@]7(C)[C@]5(C)CC[C@H]4C3(C)C)O[C@@H]2CO[C@@H]2O[C@H](CO)[C@@H](O)[C@H](O)[C@H]2O)[C@H](O)[C@H](O)[C@H]1O"
  endpoint.result: 5.93

Would you kindly share the measured AUC(0-inf) for O=C(/C=C/c1ccc(O)cc1)c1ccc(O)cc1O ?
185

So what does the record say about AUC(0-inf) for CC12CC(O)C3CC1(OC1OC(CO)C(O)C(O)C1O)C3(COC(=O)c1ccccc1)C(=O)O2 (stereo not shown) ?
135

Entry under review: O=C1C[C@@H](c2ccc(O[C@@H]3O[C@H](CO)[C@@H](O)[C@H](O)[C@H]3O)cc2)Oc2cc(O)ccc21 . Reported AUC(0-inf)?
181

Field request: AUC(0-inf) | item: C[C@H]1O[C@@H](O[C@H]2CC[C@@]3(C)[C@@H](CC[C@]4(C)[C@@H]3C=C[C@]35OC[C@@]6(CCC(C)(C)C[C@H]63)[C@@H](O)C[C@]54C)[C@]2(C)CO)[C@H](O)[C@@H](O[C@@H]2O[C@H](CO)[C@@H](O)[C@H](O)[C@H]2O)[C@H]1O
18

Can you share its AUC(0-inf)? I mean this compound: CC1(C)[C@@H](O[C@H]2O[C@H](C(=O)O)[C@@H](O)[C@H](O)[C@H]2O[C@@H]2O[C@H](C(=O)O)[C@@H](O)[C@H](O)[C@H]2O)CC[C@]2(C)[C@H]3C(=O)C=C4[C@@H]5C[C@@](C)(C(=O)O)CC[C@]5(C)CC[C@@]4(C)[C@]3(C)CC[C@@H]12
156

Which value of AUC(0-inf) has been reported for COc1cc(/C=C/C(=O)O)ccc1O in the records?
1610

These measurements were taken from paper PMC6222316.
